method_summary: NCI Yeast Anticancer Drug Screen. Data for the cln2 rad14 strain (AID 165);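 also: 0% = growth equal to vehicle treated cultures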
stated_conditions: S. cerevisiae cln2 rad14 strain, at 50.0 µM, stronger effect = higher value
Compounds without any hit were thinned out: in the full panel of roughly 79,000, 15% have a hit.
Cut-off 10% on growth inhibition, inclusive. At or above means MET; below means NOT MET.

{"columns": ["compound", "answer_label"],
 "data": [
  ["OC(CC1CCCC(CC(O)c2ccccc2)N1CCc1ccccc1)c1ccccc1 (stereo not given)", "MET"]
]}

Given Clc1cccc2[nH]ccc12 , state whether its growth inhibition is at least 10%.
NOT MET

Given CCOc1c2c(nn(C)c1=O)Oc1ccccc1N2CCCN1CCOCC1 , state whether its growth inhibition is at least 10%.
NOT MET

Given S=c1[nH]nc2nc3c4ccccc4c4ccccc4c3nn12 , state whether its growth inhibition is at least 10%.
MET

Given O=C(O)CCSSCCCS(=O)O , state whether its growth inhibition is at least 10%.
MET

Given COC1C(OC(N)=O)C(O)C(Oc2ccc3c(O)c(NC(=O)c4ccc(O)c(CC=C(C)C)c4)c(=O)oc3c2C)OC1(C)C (stereo not given) , state whether its growth inhibition is at least 10%.
NOT MET

Given CCOC(=O)C1CC(O)c2ccc(Cl)cc2N1 (stereo not given) , state whether its growth inhibition is at least 10%.
MET

----------
method_summary: NCI Yeast Anticancer Drug Screen. Data for the mec2-1 strain (AID 157)
stated_conditions: S. cerevisiae mec2-1 strain, at 50.0 µM
This is part of a sample that, as a whole, favours compounds with a hit. Of some 79,000 tested, about 15% had one in any assay. The source made the active and inactive calls. Cut-off read from the data, not from the text of the source: active = growth inhibition above about 70%; inactive = the rest.
Return exactly one item of label 1 for active, label 0 for inactive

Take a look at these entries with their results.
{"columns": ["compound", "answer_label"],
 "data": [
  ["Cc1ccc2c(c1)[nH]c(=S)n2C=C1C(=O)CC(C)(C)CC1=O", "label 0"],
  ["Nc1ccc(C2SCC(=O)N2NS(=O)(=O)c2cccc(C(=O)O)c2)cc1 (configuration not stated)", "label 0"],
  ["CNCC(OC)OC", "label 0"]
]}

Write down the call the test reported for this compound. Item: COc1cc2c(cc1C(CC(C)=O)c1cc(OC)c(OC)c(OC)c1)OCO2 (configuration not stated)
label 0

Write down the call the test reported for this compound. Item: O=C1CSc2ccnc(=O)n21
label 0

Write down the call the test reported for this compound. Item: CCC(C(=O)O)C1=CCCc2c(C)ccc(C)c21 (configuration not stated)
label 0

Write down the call the test reported for this compound. Item: CN=C/C(C(C)=O)=C(\C)O
label 0

Write down the call the test reported for this compound. Item: CCCCc1c2c(nc3c1CCCC3=O)CCCC2
label 0

Write down the call the test reported for this compound. Item: C=CCCC(C)N(C(=O)OC(C)(C)C)S(=O)(=O)c1ccc(C)cc1 (configuration not stated)
label 0

Write down the call the test reported for this compound. Item: Cc1ccc(NC(=O)/C=C/c2ccccc2)cc1Cl
label 0

----------
Assignment: determine reported growth inhibition for the given compounds.
method_summary: NCI Yeast Anticancer Drug Screen. Data for the bub3 strain (AID 167)
stated_conditions: S. cerevisiae bub3 mutant strain, at 50.0 µM, stronger effect = higher value
About 79,000 compounds went through this panel and 15% of them were active in at least one assay; those are over-represented in the sample as a whole. Where a SMILES comes first, the peptide text is derived from it. Bridges are numbered along the chain shown (N, C = ends). [ ]: non-standard residue; d: D form. The star is where a group is joined. ξ: configuration not given here. PhAc = O=C(Cc1ccccc1)*; ξP = O=C(O)C1CCCN1
Give bare numbers, in %.

Look over these answered cases.
{"columns": ["compound", "unit_spec", "val"],
 "data": [
  ["CC(C)(C)OC(=O)CC1(O)CCCCC1", "%", 4],
  ["CC(C)(C)NC(=O)Nc1nccs1", "%", -3.9],
  ["NC(=O)c1ccc(C(F)(F)F)cc1O", "%", 1.2],
  ["O=C(Cc1ccccc1)N[C@@H]1COC(=O)C2CCCN2C(=O)[C@@H]2CCCN2C1=O (some centres not stated) (PhAc-[dS]-Pro-[ξP]; ester 1-C)", "%", 12.3],
  ["N#C/C(=C\\c1c(Cl)cccc1Cl)c1ccc([N+](=O)[O-])cc1", "%", 48.8]
]}

Hi there! I need growth inhibition for each item below, if you can.
1. CC(=O)CC1(O)C(=O)C(C(C)(C)C)=CC2(C(C)(C)C)OC12 (configuration not stated)
2. CC(=O)Nc1ccc(Br)cc1
3. NC(=O)c1ccc(Cl)c([N+](=O)[O-])c1

[6.25, -17.1, -31.3]

Hi there! I need growth inhibition for each item below, if you can.
1. COC(=O)c1cccc2c1-c1ccccc1C2=O
2. CN(C)CC(O)CO (configuration not stated)
3. CC(=O)C(C)(C)CCC(C)(C)C(C)=O

14
21.7
8.4

Please report growth inhibition for the following compound: Fc1c(F)c(F)c(-c2nnc(-c3c(F)c(F)c(F)c(F)c3F)o2)c(F)c1F
9.3

----------
method_summary: NCI Yeast Anticancer Drug Screen. Data for the bub3 strain (AID 167)
stated_conditions: S. cerevisiae bub3 mutant strain, at 50.0 µM
The panel holds about 79,000 compounds, 15% with a hit somewhere; the sample as a whole holds those more often. Calls of active or inactive are those of the source. No stated cut-off is given here; in the data, active means growth inhibition above about 70%; inactive means the rest.
Return exactly one item of 1 (active), 0 (inactive)

Take a look at these entries with their results.
{"columns": ["compound", "answer_label"],
 "data": [
  ["CC(=O)N(C(C)=O)C1=C(c2ccccc2)C(=O)c2ccccc21", 0],
  ["COc1nsc2ccc(C(C)C(N)=O)cc12 (stereo not drawn)", 0],
  ["C=C1C(=O)OC2/C=C(\\C)CC/C=C(/C=O)C(OC(=O)C(C)C)C(O)C12 (stereo not drawn)", 0],
  ["CCOc1nc(N)nc(C)c1N=Nc1ccc(O)cc1", 0],
  ["c1ccc(N2CCN(C(c3cccs3)N3CCN(c4ccccc4)CC3)CC2)cc1", 0],
  ["CN1C(=O)c2ccccc2NC(=O)C12O[C@@H]2c1cccc(O)c1 (stereo partly drawn)", 0],
  ["CC1=NOC(C)(O)/C1=N/O (stereo not drawn)", 0],
  ["O=C1NCCCCC1CC/C=C/c1ccccc1 (stereo not drawn)", 0]
]}

Write down the call the test reported for this compound. Item: O=C(CC(=O)N1N=C(N(c2ccccc2)c2ccccc2)CC1c1ccccc1)Nc1ccccc1 (stereo not drawn)
0

Write down the call the test reported for this compound. Item: COc1ccc(OC)c(NC(=O)Nc2ccc(I)cc2)c1
0

Write down the call the test reported for this compound. Item: CC(C)(C(=O)c1cccnc1)c1cccnc1
0

Write down the call the test reported for this compound. Item: COC1=C(OC)C(=O)C(Sc2ccc3ccccc3c2)=C(Cl)C1=O
1

Write down the call the test reported for this compound. Item: O=C(NNC(=O)c1ccncc1)c1ccncc1
0

----------
method_summary: NCI Yeast Anticancer Drug Screen. Data for the bub3 strain (AID 167)
stated_conditions: S. cerevisiae bub3 mutant strain, at 50.0 µM, stronger effect = higher value
This is part of a sample that, as a whole, favours compounds with a hit. Of some 79,000 tested, about 15% had one in any assay.
Assignment: determine reported growth inhibition for the given compounds.
Answers are plain numbers, in %.

Look over these answered cases.
{"columns": ["compound", "growth inhibition [%]"],
 "data": [
  ["Cn1nc2ccc3nccc(NCCNCCO)c3c2n1", -4.8],
  ["CC(=O)Nc1ccc(OC(C)=O)cc1", 2.7]
]}

Hi there! I need growth inhibition for each item below, if you can.
1. NC(C(=O)O)c1ccc(C(=O)O)cc1 (stereo not drawn)
2. Nc1nnc(-c2ccccc2O)o1
3. COc1cc(NCCCCCNC(C)C)c2nccc(C)c2c1
4. CC1CCC(=O)N1c1ccc(N)cc1 (stereo not drawn)

1: -7.6; 2: 21.4; 3: 27.9; 4: -23.3

Hi there! I need growth inhibition for each item below, if you can.
1. C=CCN1C(=O)c2ccccc2C1=O
2. O/N=C(\CC(O)(C(F)(F)F)C(F)(F)F)c1cccs1
3. CC1=CC(=O)c2ccc3c4ccccc4n(C)c3c2C1=O
4. O=c1cc(-c2ccccc2)c2cc3c(=O)ccoc3cc2o1
5. NCCCOCCN1CCN(c2ccccc2)CC1
6. O=C1c2ccccc2-c2ccc(N=Cc3cccs3)cc21

[22.6, 75.8, -2.9, -1.55, 2.95, 33.5]

Please report growth inhibition for the following compound: CCOP(=O)(OCC)C(NC(=O)C(C(F)(F)F)C(F)(F)F)c1ccccc1 (stereo not drawn)
34.1

----------
method_summary: NCI Yeast Anticancer Drug Screen. Data for the rad50 strain (AID 155);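 also: 0% = growth of vehicle-only cultures of the same strain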
stated_conditions: S. cerevisiae rad50 strain growth inhibition; at 50.0 µM; stronger effect = higher value
Protocol: Growth inhibition of yeast strains with defined genetic alterations is measured as a screen for potential anti-cancer activity. Selected strains with alterations in DNA damage repair or cell cycle control were exposed to compounds and growth inhibition was measured relative to vehicle treated controls. The strain used in this assay is rad50
Compounds without any hit were thinned out: in the full panel of roughly 79,000, 15% have a hit.
value_kind: growth inhibition (%)
Give bare numbers, in %.

Look over these answered cases.
{"columns": ["compound", "val"],
 "data": [
  ["CC1(C)CC(=O)C(/C=N/C(N)=S)=C(O)C1", -20.3],
  ["C=C(C)C(=O)OCC(O)C[N+](C)(C)C (stereo not given)", 0.35],
  ["Cc1cc2ncn(C3OC(CO)C(O)C3O)c2cc1C (stereo not given)", -2.7],
  ["c1ccc2c[n+](Cc3ccc4ccccc4n3)ccc2c1", 13]
]}

Hi there! I need growth inhibition for each item below, if you can.
1. Cc1c(/C=C\C(=O)c2ccccc2)c2ccccc2n1C
2. COc1ccc(C2c3cc4c(cc3OC(C)(OC)C2C)OCO4)cc1 (stereo not given)
3. CCC(C(=O)NC1c2ccccc2Oc2ccccc21)c1ccccc1 (stereo not given)
4. COCn1cnc2c(F)ncnc21

[12.7, -33.5, -0.85, 3.85]
